target: Cytochrome P450 1A2 (Homo sapiens); assay: p450-cyp1a2 (AID 410); conditions: recombinant CYP1A2, luciferin-ME demethylation, luminescence; series mostly up to 11.4 µM; note: potency is the fitted concentration of half-maximal effect
Records with an inconclusive call do not appear. Calls of active or inactive are those of the source. Calls come from the whole dose curve.
Experimental Readout: Potency

[[record]]
structure_as_smiles = "Cc1cc([N+](=O)[O-])c(C)c(Br)c1C"
value_reported = "1000 nM (active)"

[[record]]
structure_as_smiles = "O=C(O)c1ccc(/C=N\\N=C2c3ccccc3-c3ccccc32)cc1"
value_reported = "126 nM (active)"

[[record]]
structure_as_smiles = "Nc1ccn([C@H]2O[C@@H](COP(=O)(O)O)[C@@H](O)[C@H]2O)c(=O)n1"
value_reported = "inactive"

[[record]]
structure_as_smiles = "C[C@@H]1C[C@@H]2[C@H]3CCC4=CC(=O)C=C[C@]4(C)[C@]3(Cl)[C@@H](O)C[C@@]2(C)[C@@]1(O)C(=O)CO"
value_reported = "inactive"

[[record]]
structure_as_smiles = "O=C(O)c1cc(C(=O)O)nc(C(=O)O)c1"
value_reported = "inactive"

[[record]]
structure_as_smiles = "O=C(CCCc1ccccn1)c1ccccc1"
value_reported = "5010 nM (active)"

[[record]]
structure_as_smiles = "Oc1c(C(O)(c2ccccc2)c2ccc3ccccc3c2O)ccc2ccccc12"
value_reported = "1000 nM (active)"

[[record]]
structure_as_smiles = "CC(C)C[C@H]1C(=O)N2CCC[C@@H]2[C@]2(O)O[C@](NC(=O)[C@H]3C=C4c5cccc6[nH]c(Br)c(c56)C[C@H]4N(C)C3)(C(C)C)C(=O)N12"
value_reported = "inactive"

[[record]]
structure_as_smiles = "COc1ccc2c(c1)N(CC[C@H]1CCCCN1C)c1ccccc1S2"
value_reported = "1260 nM (active)"

[[record]]
structure_as_smiles = "N=C(N)SCCN1CCCCC1"
value_reported = "inactive"

